# Tested target: IGF-1R (Homo sapiens, UniProt P08069)
# Construct: expressed in transfected cells
# Sequence (P08069 31-1367): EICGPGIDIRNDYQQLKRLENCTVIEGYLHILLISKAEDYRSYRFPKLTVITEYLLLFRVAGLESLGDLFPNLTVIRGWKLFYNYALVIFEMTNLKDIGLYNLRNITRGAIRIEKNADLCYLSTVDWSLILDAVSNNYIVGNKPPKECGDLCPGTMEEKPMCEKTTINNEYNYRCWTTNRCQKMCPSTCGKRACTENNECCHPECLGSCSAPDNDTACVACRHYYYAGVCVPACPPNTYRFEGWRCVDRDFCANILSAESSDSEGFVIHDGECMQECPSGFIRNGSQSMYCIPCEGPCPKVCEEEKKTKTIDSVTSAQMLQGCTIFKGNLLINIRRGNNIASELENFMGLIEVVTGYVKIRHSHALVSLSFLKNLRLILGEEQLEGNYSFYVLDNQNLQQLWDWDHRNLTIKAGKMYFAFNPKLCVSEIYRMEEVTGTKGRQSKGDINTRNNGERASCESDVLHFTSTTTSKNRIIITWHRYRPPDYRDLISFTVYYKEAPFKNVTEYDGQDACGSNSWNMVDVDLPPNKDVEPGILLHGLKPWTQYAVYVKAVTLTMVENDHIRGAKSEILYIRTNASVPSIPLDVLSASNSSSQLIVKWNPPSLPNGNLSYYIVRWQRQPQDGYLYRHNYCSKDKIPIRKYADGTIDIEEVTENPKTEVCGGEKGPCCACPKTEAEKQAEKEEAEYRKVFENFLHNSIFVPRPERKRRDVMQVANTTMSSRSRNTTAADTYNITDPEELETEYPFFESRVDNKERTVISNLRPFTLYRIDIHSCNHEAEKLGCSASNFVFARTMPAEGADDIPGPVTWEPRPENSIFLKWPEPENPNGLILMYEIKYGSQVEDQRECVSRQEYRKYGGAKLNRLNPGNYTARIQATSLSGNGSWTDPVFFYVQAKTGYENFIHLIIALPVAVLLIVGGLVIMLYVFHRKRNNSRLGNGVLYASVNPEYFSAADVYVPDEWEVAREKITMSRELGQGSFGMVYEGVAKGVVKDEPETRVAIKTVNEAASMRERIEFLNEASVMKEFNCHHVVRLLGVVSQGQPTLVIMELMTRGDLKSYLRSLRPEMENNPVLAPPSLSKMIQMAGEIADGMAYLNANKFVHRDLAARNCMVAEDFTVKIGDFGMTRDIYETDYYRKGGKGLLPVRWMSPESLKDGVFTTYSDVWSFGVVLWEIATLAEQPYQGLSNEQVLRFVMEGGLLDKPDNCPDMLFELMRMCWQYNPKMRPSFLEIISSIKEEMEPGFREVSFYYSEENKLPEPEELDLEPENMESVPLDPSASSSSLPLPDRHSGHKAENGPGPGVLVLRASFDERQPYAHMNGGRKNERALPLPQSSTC
# Assay comment: Example B-2: IGF-1R Assay (PathHunter cell lines, EC80 agonist challenge, chemiluminescent detection)
# Format: cell-based
# Recorded conditions: PathHunter cells, compound 60 minutes at 37° C., EC80 agonist 3 hours; read-out: IC50, Biological Activity against IGF-1R (Table B2)
pIC50: −log10 of the molar value.
Below is a list of entries, each paired with its recorded pIC50 value.

Here's what some known entries look like.
> print(dat)
                                   compound  property.label  value.reported
1  CC(c1ccnc(N)c1)N1C(=O)N(c2ccc(C3(C(F)(F)F)CC3)cc2)C(=O)C1(C)C (stereo not shown) [Compound 135]           pIC50          ≥ 6.30
2  CC1(C)CN(S(C)(=O)=O)c2cc(N3C(=O)N(Cc4ccnc(NCc5cc[nH]n5)c4)C(C)(C)C3=O)ccc21 [Compound 245]           pIC50          ≥ 6.30
3  CC1(C)C(=O)N(c2ccc(C3(C(F)(F)F)CC3)cc2)C(=O)N1Cc1ccnc2c1OCCN2 [Compound 17]           pIC50          ≥ 6.30
4  CC1(C)C(=O)N(c2ccc(OC(F)(F)F)c(Cl)c2)C(=O)N1Cc1ccnc2c1CC(=O)N2 [Compound 287]           pIC50    5.00 to 5.70
5  CN1CCCC(Nc2cc(CN3C(=O)N(c4ccc(S(=O)(=O)C(F)(F)F)cc4)C(=O)C3(C)C)ccn2)C1=O (stereo not shown) [Compound 328]           pIC50          < 5.00
6  CC1(C)C(=O)N(c2ccc(C3(C(F)(F)F)CC3)cc2)C(=O)N1Cc1ccnc2c1CCCN2 [Compound 18]           pIC50          ≥ 6.30

Next:
Query block: What value of pIC50 has been recorded for this entry: CC1(C)C(=O)N(c2ccc(C3(C(F)(F)F)CC3)cc2)C(=O)N1Cc1ccnc(N[C@H]2CCOC2)c1 [Compound 119]
Result block: ≥ 6.30

* * *

# Tested target: IGF-1R (Homo sapiens)
# Construct: expressed in transfected cells
# Assay comment: Example B-2: IGF-1R Assay (PathHunter cell lines, EC80 agonist challenge, chemiluminescent detection)
# Type: cell-based
# Recorded conditions: PathHunter cells, compound 60 minutes at 37° C., EC80 agonist 3 hours; read-out: IC50, Biological Activity against IGF-1R (Table B2)
Property label: IC50

Query block: What value of IC50 has been recorded for this entry: CC1(C)C(=O)N(c2ccc(OC(F)(F)F)c(NC(=O)CN3CCOCC3)c2)C(=O)N1Cc1ccnc2c1CC(=O)N2 [Compound 75]
Result block: ≤ 0.5 µM

* * *

Below is a list of entries, each paired with its recorded IC50 value.
# Tested target: IGF-1R (Homo sapiens, UniProt P08069)
# Construct: expressed in transfected cells
# Assay comment: Example B-2: IGF-1R Assay (PathHunter cell lines, EC80 agonist challenge, chemiluminescent detection)
# Assay type: cell-based
# Recorded conditions: PathHunter cells, compound 60 minutes at 37° C., EC80 agonist 3 hours; read-out: IC50, Biological Activity against IGF-1R (Table B2)

Here's what some known entries look like.
> print(dat)
                           smiles.structure  property.label  value.reported
1  COC[C@@H](C)Nc1cc(CN2C(=O)N(c3cc(C(C)(C)C)nn3C)C(=O)C2(C)C)ccn1            IC50        ≤ 500 nM
2  CN1C(=O)Cc2c(CN3C(=O)N(c4ccc(C5(C#N)CCC5)cc4)C(=O)C3(C)C)ccnc21            IC50      > 10000 nM
3  CC(C)Nc1cc(CN2C(=O)N(c3ccc4c(c3)N(C)CC43CCC3)C(=O)C2(C)C)ccn1            IC50        ≤ 500 nM
4  CC1(C)C(=O)N(c2ccc(C3(C(F)(F)F)CC3)cc2)C(=O)N1Cc1ccnc(N[C@H]2C[C@H]2F)c1            IC50        ≤ 500 nM

Query block: What value of IC50 has been recorded for this entry: `CC1(C)CN(C(=O)C2CC2)c2cc(N3C(=O)N(Cc4ccnc5c4CC(=O)N5)C(C)(C)C3=O)ccc21`
Result block: ≤ 500 nM

Query block: What value of IC50 has been recorded for this entry: `CC1(C)C(=O)N(c2ccc(OC(F)(F)F)c(C#N)c2)C(=O)N1Cc1ccnc2c1CC(=O)N2`
Result block: > 10000 nM

Query block: What value of IC50 has been recorded for this entry: `Cn1nc(C(C)(C)C)cc1N1C(=O)N(Cc2ccnc(NC3CCOCC3)c2)C(C)(C)C1=O`
Result block: 2000 to 10000 nM
